molecular target: AgrA (Staphylococcus aureus, UniProt P0A0I7); construct: endogenous in cells; host or cells: S. aureus USA300 strain UAMS-1625 carrying a P3-lacZ reporter plasmid; experiment: cell-based; design: species or system S. aureus; conditions: IC50 at 40 mg/mL HSA, LB medium supplemented with human serum albumin 40 mg/mL
Sequence (P0A0I7 whole entry): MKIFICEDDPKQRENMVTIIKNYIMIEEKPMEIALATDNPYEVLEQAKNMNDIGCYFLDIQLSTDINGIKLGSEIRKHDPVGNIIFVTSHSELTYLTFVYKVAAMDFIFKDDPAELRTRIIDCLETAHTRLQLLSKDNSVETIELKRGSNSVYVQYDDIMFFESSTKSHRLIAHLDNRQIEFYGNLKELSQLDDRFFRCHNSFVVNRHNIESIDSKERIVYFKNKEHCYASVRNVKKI
Would you mind telling me the reported IC50 of each entry?

Exam item: Identify the reported IC50 for the following entry. `Cc1ccc(S(=O)(=O)c2nnn3c2[nH]c(=O)c2ccc(N4CCN(CC(=O)NCCC(C)(C)C)CC4)cc23)c(C)c1`
Marked response: 17.2 to 86.2 µM

Exam item: Identify the reported IC50 for the following entry. Cc1ccc(S(=O)(=O)c2nnn3c2[nH]c(=O)c2ccc(N4CCN(CC(=O)NCC5CCCO5)CC4)cc23)c(C)c1 (stereo not shown)
Marked response: 17.3 to 86.3 µM

Exam item: Identify the reported IC50 for the following entry. `Cc1ccc(S(=O)(=O)c2nnn3c2[nH]c(=O)c2ccc(N4CCN(CC(=O)NC(C)C)CC4)cc23)c(C)c1`
Marked response: < 18.6 µM

---
Exam item: Identify the reported IC50 for the following entry. `Cc1ccc(S(=O)(=O)c2nnn3c2[nH]c(=O)c2ccc(N4CCN(CC(=O)NCCCCO)CC4)cc23)c(C)c1`
Marked response: 17.6 to 88.1 µM

====

target: AgrA (Staphylococcus aureus, UniProt P0A0I7); construct: endogenous in cells; host or cells: S. aureus USA300 strain UAMS-1625 carrying a P3-lacZ reporter plasmid; assay: cell-based; set-up: species or system S. aureus; settings: IC50 without HSA, LB medium, no human serum albumin, 18 hours incubation
Measurement kind: IC50

A selection of reference data follows.
Exam item: Identify the reported IC50 for the following entry. `Cc1ccc(S(=O)(=O)c2nnn3c2[nH]c(=O)c2ccc(N4CCN(CC(=O)N5CCNCC5)CC4)cc23)c(C)c1`
Marked response: 1.77 to 8.85 µM

Exam item: Identify the reported IC50 for the following entry. `Cc1ccc(S(=O)(=O)c2nnn3c2[nH]c(=O)c2ccc(N4CCN(CC(=O)N5CCC5)CC4)cc23)c(C)c1`
Marked response: < 1.87 µM

Exam item: Identify the reported IC50 for the following entry. `Cc1ccc(S(=O)(=O)c2nnn3c2[nH]c(=O)c2ccc(N4CCCN(CC(=O)NCCO)CC4)cc23)c(C)c1`
Marked response: 1.81 to 9.03 µM

Exam item: Identify the reported IC50 for the following entry. `Cc1ccc(S(=O)(=O)c2nnn3c2[nH]c(=O)c2ccc(N4CCN(CC(=O)NCCOCCO)CC4)cc23)c(C)c1`
Marked response: < 1.71 µM

Exam item: Identify the reported IC50 for the following entry. Cc1ccc(S(=O)(=O)c2nnn3c2[nH]c(=O)c2ccc(N4CCN(CC(=O)N5CCCC(O)C5)CC4)cc23)c(C)c1 (centres unmarked)
Marked response: 1.73 to 8.63 µM

Exam item: Identify the reported IC50 for the following entry. `Cc1ccc(S(=O)(=O)c2nnn3c2[nH]c(=O)c2ccc(N4CCN(CC(=O)NCC5CCN(C)CC5)CC4)cc23)c(C)c1`
Marked response: 1.65 to 8.24 µM

For every item below, please supply its IC50.
1. Cc1ccc(S(=O)(=O)c2nnn3c2[nH]c(=O)c2ccc(N4CCN(CC(=O)NCC5CC5)CC4)cc23)c(C)c1
2. CCCCCCNC(=O)CN1CCN(c2ccc3c(=O)[nH]c4c(S(=O)(=O)c5ccc(C)cc5C)nnn4c3c2)CC1
3. Cc1ccc(S(=O)(=O)c2nnn3c2[nH]c(=O)c2ccc(N4CCN(CC(=O)NCCCN5CCCC5=O)CC4)cc23)c(C)c1

Marked response:
1. < 1.82 µM
2. < 1.72 µM
3. 1.61 to 8.05 µM

====

molecular target: AgrA (Staphylococcus aureus, UniProt P0A0I7); construct: endogenous in cells; host or cells: S. aureus USA300 strain UAMS-1625 carrying a P3-lacZ reporter plasmid; assay: cell-based; parameters: species or system S. aureus; conditions: IC50 at 40 mg/mL HSA, LB medium supplemented with human serum albumin 40 mg/mL
Measurement kind: IC50

A selection of reference data follows.
Exam item: Fill: IC50 (AgrA (Staphylococcus aureus, UniProt P0A0I7)) for this molecule `C#CCNC(=O)CN1CCN(c2ccc3c(=O)[nH]c4c(S(=O)(=O)c5ccc(C)cc5C)nnn4c3c2)CC1`
Marked response: < 18.7 µM

Exam item: Fill: IC50 (AgrA (Staphylococcus aureus, UniProt P0A0I7)) for this molecule `Cc1ccc(S(=O)(=O)c2nnn3c2[nH]c(=O)c2ccc(N4CCN(CC(=O)N5CCCC5)CC4)cc23)c(C)c1`
Marked response: 18.2 to 91 µM

Exam item: Fill: IC50 (AgrA (Staphylococcus aureus, UniProt P0A0I7)) for this molecule `Cc1ccc(S(=O)(=O)c2nnn3c2[nH]c(=O)c2ccc(N4CCN(CC(=O)NC5CCNCC5)CC4)cc23)c(C)c1`
Marked response: 17.3 to 86.4 µM

Here is another molecule to look at.
Exam item: Fill: IC50 (AgrA (Staphylococcus aureus, UniProt P0A0I7)) for this molecule `COCCNC(=O)CN1CCN(c2ccc3c(=O)[nH]c4c(S(=O)(=O)c5ccc(C)cc5C)nnn4c3c2)CC1`
Marked response: < 18.1 µM

====

target: AgrA (Staphylococcus aureus, UniProt P0A0I7); construct: endogenous in cells; host or cells: S. aureus USA300 strain UAMS-1625 carrying a P3-lacZ reporter plasmid; assay: cell-based; parameters: species or system S. aureus; settings: 40 mg/mL HSA versus no HSA
Measurement kind: Ratio IC50 (in presence of HSA)/IC50 (in absence of HSA)

Exam item: Fill: Ratio IC50 (in presence of HSA)/IC50 (in absence of HSA) (AgrA (Staphylococcus aureus, UniProt P0A0I7)) for this compound Cc1ccc(S(=O)(=O)c2nnn3c2[nH]c(=O)c2ccc(N4CCN(CC(=O)N5CCOCC5)CC4)cc23)c(C)c1 [Compound 2]
Marked response: +++ (+++: ratio ≤ 25)

Exam item: Fill: Ratio IC50 (in presence of HSA)/IC50 (in absence of HSA) (AgrA (Staphylococcus aureus, UniProt P0A0I7)) for this compound COCCNC(=O)CN1CCCN(c2ccc3c(=O)[nH]c4c(S(=O)(=O)c5ccc(C)cc5C)nnn4c3c2)CC1 [Compound 31]
Marked response: +++ (+++: ratio ≤ 25)

====

target: AgrA (Staphylococcus aureus, UniProt P0A0I7); construct: endogenous in cells; host or cells: S. aureus USA300 strain UAMS-1625 carrying a P3-lacZ reporter plasmid; assay: cell-based; parameters: species or system S. aureus; conditions: 40 mg/mL HSA versus no HSA
Measurement kind: Ratio IC50 (in presence of HSA)/IC50 (in absence of HSA)

Exam item: Identify the reported Ratio IC50 (in presence of HSA)/IC50 (in absence of HSA) for the following entry. Cc1ccc(S(=O)(=O)c2nnn3c2[nH]c(=O)c2ccc(N4CCN(CC(=O)NCCC5CCCN5C)CC4)cc23)c(C)c1 (stereo not shown)
Marked response: +++ (+++: ratio ≤ 25)

Exam item: Identify the reported Ratio IC50 (in presence of HSA)/IC50 (in absence of HSA) for the following entry. `Cc1ccc(S(=O)(=O)c2nnn3c2[nH]c(=O)c2ccc(N4CCCN(CC(=O)N5CCCC5)CC4)cc23)c(C)c1`
Marked response: +++ (+++: ratio ≤ 25)

Exam item: Identify the reported Ratio IC50 (in presence of HSA)/IC50 (in absence of HSA) for the following entry. Cc1ccc(S(=O)(=O)c2nnn3c2[nH]c(=O)c2ccc(N4CCN(CC(=O)N5C(C)CCC5C)CC4)cc23)c(C)c1 (stereo not shown)
Marked response: +++ (+++: ratio ≤ 25)

====

Biological target: AgrA (Staphylococcus aureus, UniProt P0A0I7)
Construct: endogenous in cells; host or cells: S. aureus USA300 strain UAMS-1625 carrying a P3-lacZ reporter plasmid
Experiment: cell-based
Parameters: species or system S. aureus
Conditions: IC50 without HSA, LB medium, no human serum albumin, 18 hours incubation
Experimental: The inventive compounds are 3-(phenylsulfonyl)-[1,2,3]triazolo[1,5a]quinazolin-5(4h)-one derivatives comprising an N-bound piperazine or homopiperazine at the 8-position of the [1,2,3]triazolo[1,5a]quinazolin-5(4h)-one core, further substituted (on the second nitrogen atom) by an (optionally substituted) acetyl or propionyl amide group. […] The β-galactosidase produced by expression of lacZ cleaved the MUG into galactopyranose and 4-methylumbelliferone, which was measured by fluorescence. […]
Measurement kind: IC50

Exam item: Identify the reported IC50 for the following entry. `Cc1ccc(S(=O)(=O)c2nnn3c2[nH]c(=O)c2ccc(N4CCN(CC(=O)N5CCCC6(CCN(C)CC6)C5)CC4)cc23)c(C)c1`
Marked response: 1550 to 7730 nM

For every item below, please supply its IC50.
1. Cc1ccc(S(=O)(=O)c2nnn3c2[nH]c(=O)c2ccc(N4CCN(CC(=O)NCCO)CC4)cc23)c(C)c1
2. Cc1ccc(S(=O)(=O)c2nnn3c2[nH]c(=O)c2ccc(N4CCN(CC(=O)NC5CCC5)CC4)cc23)c(C)c1
3. Cc1ccc(S(=O)(=O)c2nnn3c2[nH]c(=O)c2ccc(N4CCCN(CC(=O)NC5CCOCC5)CC4)cc23)c(C)c1
4. Cc1ccc(S(=O)(=O)c2nnn3c2[nH]c(=O)c2ccc(N4CCN(CC(=O)N(C)C)CC4)cc23)c(C)c1
5. Cc1ccc(S(=O)(=O)c2nnn3c2[nH]c(=O)c2ccc(N4CCN(CC(=O)NC5CCNC5)CC4)cc23)c(C)c1 (stereo not shown)
6. Cc1ccc(S(=O)(=O)c2nnn3c2[nH]c(=O)c2ccc(N4CCN(CC(=O)N5CCN(C(C)(C)C)CC5)CC4)cc23)c(C)c1

Marked response:
["< 1850 nM", "< 1820 nM", "1680 to 8420 nM", "< 1910 nM", "1770 to 8850 nM", "1610 to 8050 nM"]

For every item below, please supply its IC50.
1. Cc1ccc(S(=O)(=O)c2nnn3c2[nH]c(=O)c2ccc(N4CCN(CC(=O)NCCN5CCCCC5)CC4)cc23)c(C)c1
2. Cc1ccc(S(=O)(=O)c2nnn3c2[nH]c(=O)c2ccc(N4CCN(CC(=O)NC5CCC(N(C)C)CC5)CC4)cc23)c(C)c1 (stereo not shown)
3. Cc1ccc(S(=O)(=O)c2nnn3c2[nH]c(=O)c2ccc(N4CCN(CC(=O)N5CCN(C6CC6)CC5)CC4)cc23)c(C)c1
4. Cc1ccc(S(=O)(=O)c2nnn3c2[nH]c(=O)c2ccc(N4CCN(CC(=O)N5CCC(N(C)C)CC5)CC4)cc23)c(C)c1
5. Cc1ccc(S(=O)(=O)c2nnn3c2[nH]c(=O)c2ccc(N4CCN(CC(=O)NC5CC5)CC4)cc23)c(C)c1
6. Cc1ccc(S(=O)(=O)c2nnn3c2[nH]c(=O)c2ccc(N4CCN(CC(=O)NC(C)C)CC4)cc23)c(C)c1

Marked response:
1: 1650 to 8240 nM; 2: < 1610 nM; 3: < 1650 nM; 4: 1650 to 8240 nM; 5: < 1870 nM; 6: < 1860 nM

The measurements presented in this section are drawn from patent US20250376472A1.
